Data origin, for the record: patent US10765651B2

method-summary: physchem
condition: water, thermodynamic from solid
quantity-name: solubility (mg/mL)
Numeric answer only, unit mg/mL assumed.

Value of measured solubility for the entry CNCC(=O)O [N-MG, N-methylglycine, reference compound] : 660

###

method-summary: Hygroscopicity test, condition 3 (dynamic vapor sorption, 0 to 90 to 0% RH)
Assay type: physicochemical
condition: DVS, 25° C., RH 80%
quantity-name: Change In Mass (%)
Express it in %; write the number only.

Reported Change In Mass (%) for CNCC(=O)O [N-MG, N-methylglycine, reference compound] was 87.4

Given item CNCC(=O)O.CNCC(=O)O.O=C(O)C(O)C(O)C(=O)O (racemic) [N-MG/DL-TA = 2/1] , the value recorded as its Change In Mass (%) is 8.12

In plain terms, CNCC(=O)O.CNCC(=O)O.O=C(O)C(O)C(O)C(=O)O [N-MG/L-TA = 2/1] has a documented Change In Mass (%) of 0.32

response.value for CNCC(=O)O.CNCC(=O)O.O=C(O)C(O)C(O)C(=O)O [N-MG/D-TA = 2/1] (field: Change In Mass (%)) = 0.60

###

method-summary: Hygroscopicity test, condition 3 (dynamic vapor sorption, 0 to 90 to 0% RH)
Assay type: physicochemical
condition: DVS, 25° C., RH 30%
Would you mind telling me the reported Change In Mass (%) of each entry?
Express your answer in %, writing the number without its unit.

In plain terms, CNCC(=O)O [N-MG, N-methylglycine, reference compound] has a documented Change In Mass (%) of 0.0

The measured Change In Mass (%) associated with CNCC(=O)O.CNCC(=O)O.O=C(O)C(O)C(O)C(=O)O (racemic) [N-MG/DL-TA = 2/1] reads 0.26

In plain terms, CNCC(=O)O.CNCC(=O)O.O=C(O)C(O)C(O)C(=O)O [N-MG/L-TA = 2/1] has a documented Change In Mass (%) of 0.05

CNCC(=O)O.CNCC(=O)O.O=C(O)C(O)C(O)C(=O)O [N-MG/D-TA = 2/1] has a reported Change In Mass (%) of 0.07

###

Could you please report measured Change In Mass (%) for the items listed next?
method-summary: Hygroscopicity test, condition 3 (dynamic vapor sorption, 0 to 90 to 0% RH)
Type: physicochemical
condition: DVS, 25° C., RH 0%
Hi! Could you send only the number? It should be in %, unit omitted.

Reported Change In Mass (%) for CNCC(=O)O.CNCC(=O)O.O=C(O)C(O)C(O)C(=O)O [N-MG/D-TA = 2/1] was 0.00

Sure, the documented Change In Mass (%) for CNCC(=O)O.CNCC(=O)O.O=C(O)C(O)C(O)C(=O)O [N-MG/L-TA = 2/1] is 0.00

Value of measured Change In Mass (%) for the entry CNCC(=O)O [N-MG, N-methylglycine, reference compound] : 0.0

The measured Change In Mass (%) associated with CNCC(=O)O.CNCC(=O)O.O=C(O)C(O)C(O)C(=O)O (racemic) [N-MG/DL-TA = 2/1] reads 0.00

###

So I've got a bunch of molecules here, and I need their Change In Mass (%) values.
method-summary: Hygroscopicity test, condition 3 (dynamic vapor sorption, 0 to 90 to 0% RH)
Assay type: physicochemical
condition: DVS, 25° C., RH 90%
Response body: numeric value in %, unit text excluded.

// Change In Mass (%) lookup, molecule = CNCC(=O)O.CNCC(=O)O.O=C(O)C(O)C(O)C(=O)O [N-methylglycine:D-tartaric acid 2:1 co-crystal] , result: 14.27

Entry under test: CNCC(=O)O.CNCC(=O)O.O=C(O)C(O)C(O)C(=O)O (racemic) [N-MG/DL-TA = 2/1] . Its Change In Mass (%) was 30.35

The value of Change In Mass (%) measured for the molecule CNCC(=O)O.CNCC(=O)O.O=C(O)C(O)C(O)C(=O)O [N-methylglycine:L-tartaric acid 2:1 co-crystal] turned out to be 10.74

response.value for CNCC(=O)O [N-MG, N-methylglycine, reference compound] (field: Change In Mass (%)) = 130.9

Quick note, Change In Mass (%) for CNCC(=O)O.CNCC(=O)O.O=C(O)C(O)C(O)C(=O)O (racemic) [N-methylglycine:DL-tartaric acid 2:1 co-crystal] landed at 30.35

// field: Change In Mass (%); key: CNCC(=O)O.CNCC(=O)O.O=C(O)C(O)C(O)C(=O)O [N-MG/D-TA = 2/1] ; value = 14.27

Change In Mass (%) reported for this molecule CNCC(=O)O.CNCC(=O)O.O=C(O)C(O)C(O)C(=O)O [N-MG/L-TA = 2/1] : 10.74

###

method-summary: Hygroscopicity test, condition 2 (humidity chamber, weight change)
Format: physicochemical
condition: 30° C., 75% RH, 5 hr
quantity-name: Weight (g)
Expressed in g, but write only the number.

Field Weight (entry CNCC(=O)O.CNCC(=O)O.O=C(O)C(O)C(O)C(=O)O [N-MG/L-TA = 2/1] ) reads 0.1465

The reported value for CNCC(=O)O.O=C(O)C(O)C(O)C(=O)O (racemic) [N-MG/DL-TA = 1/1] in terms of Weight is 0.1545

Given item CNCC(=O)O.CNCC(=O)O.O=C(O)C(O)C(O)C(=O)O (racemic) [N-MG/DL-TA = 2/1] , the value recorded as its Weight is 0.1877

Reported Weight of CNCC(=O)O [N-MG, N-methylglycine, reference compound] : 0.2403

Measured Weight of CNCC(=O)O.O=C(O)C(O)C(O)C(=O)O [N-MG/L-TA = 1/1] : 0.1439

###

method-summary: Hygroscopicity test of fumaric acid co-crystals under ambient conditions
Type: physicochemical
condition: 21 hr
For each record, write down the corresponding Change In Mass (%).
Output spec: scalar in %, unitless text.

What the record says about CNCC(=O)O.CNCC(=O)O.O=C(O)/C=C/C(=O)O : Change In Mass (%) is 6.29

Kindly note the recorded Change In Mass (%) for CNCC(=O)O.CNCC(=O)O.CNCC(=O)O.CNCC(=O)O.CNCC(=O)O.CNCC(=O)O.O=C(O)/C=C/C(=O)O , which is 25.14

// field: Change In Mass (%); key: CNCC(=O)O.CNCC(=O)O.CNCC(=O)O.O=C(O)/C=C/C(=O)O ; value = 20.78

Data point: CNCC(=O)O.O=C(O)/C=C/C(=O)O ; Change In Mass (%) = 0.96

###

method-summary: Hygroscopicity test, condition 2 (humidity chamber, weight change)
Type: physicochemical
condition: 30° C., 75% RH, 1 hr
Please respond with reported Weight for every item in the list.
Provide only the numeric value, understood in g.

What the record says about CNCC(=O)O.CNCC(=O)O.O=C(O)C(O)C(O)C(=O)O (racemic) [N-MG/DL-TA = 2/1] : Weight is 0.1695

The molecule CNCC(=O)O [N-MG, N-methylglycine, reference compound] showed Weight equal to 0.1585

The measured Weight associated with CNCC(=O)O.O=C(O)C(O)C(O)C(=O)O [N-MG/L-TA = 1/1] reads 0.1437

The recorded Weight for CNCC(=O)O.CNCC(=O)O.O=C(O)C(O)C(O)C(=O)O [N-MG/L-TA = 2/1] is 0.1462

Measured Weight, CNCC(=O)O.O=C(O)C(O)C(O)C(=O)O (racemic) [N-MG/DL-TA = 1/1] : 0.1349

###

method-summary: Hygroscopicity test, condition 2 (humidity chamber, weight change)
Format: physicochemical
condition: 30° C., 75% RH, 3 hr
Record form. Attribute: Weight. Fill in for each entry.
I only need the number, in g, no unit after it.

In plain terms, CNCC(=O)O [N-MG, N-methylglycine, reference compound] has a documented Weight of 0.2146

# compound CNCC(=O)O.O=C(O)C(O)C(O)C(=O)O (racemic) [N-MG/DL-TA = 1/1] ; its Weight = 0.1469

For CNCC(=O)O.O=C(O)C(O)C(O)C(=O)O [N-MG/L-TA = 1/1] the compound record lists Weight as 0.1439

Per the records, this compound ( CNCC(=O)O.CNCC(=O)O.O=C(O)C(O)C(O)C(=O)O [N-MG/L-TA = 2/1] ) has Weight equal to 0.1464

Data point: CNCC(=O)O.CNCC(=O)O.O=C(O)C(O)C(O)C(=O)O (racemic) [N-MG/DL-TA = 2/1] ; Weight = 0.1816

###

method-summary: Hygroscopicity test, condition 2 (humidity chamber, weight change)
Assay type: physicochemical
condition: 30° C., 75% RH, 2 hr
quantity-name: Weight (g)
All answers are understood in g, so give the number only.

# Weight of CNCC(=O)O.O=C(O)C(O)C(O)C(=O)O [N-MG/L-TA = 1/1] = 0.1437

GET /value?item= CNCC(=O)O.CNCC(=O)O.O=C(O)C(O)C(O)C(=O)O (racemic) [N-MG/DL-TA = 2/1] &field=Weight returns 0.1768

Entry CNCC(=O)O.CNCC(=O)O.O=C(O)C(O)C(O)C(=O)O [N-MG/L-TA = 2/1] ; Weight = 0.1463

Recorded Weight (molecule CNCC(=O)O.O=C(O)C(O)C(O)C(=O)O (racemic) [N-MG/DL-TA = 1/1] ): 0.1399

Weight in this record for CNCC(=O)O [N-MG, N-methylglycine, reference compound] : 0.1942
